- test: Half life in Sprague-Dawley rat at 1 mg/kg, iv or 2 mg/kg, po
- Assay type: ADME, organism-based
- measurement-parameters: in vivo
recorded-endpoint: half-life (h)

- chemical-smiles: "O=C(O)C1CN(Cc2ccc(-c3nc4ccc(C5(c6ccccc6)CC5)nc4s3)c(F)c2)C1"
  recorded-endpoint: "half-life"
  assay-value: 5.9

----------
- test: Mean residence time in Beagle dog at 1 mg/kg, iv or 1 mg/kg, po
- Assay type: ADME, organism-based, Canis lupus familiaris
- measurement-parameters: in vivo

- chemical-smiles: "O=C(O)C1CN(Cc2ccc(-c3nc4ccc(C5(c6ccccc6)CC5)nc4s3)c(F)c2)C1"
  unit-of-measurement: "h"
  MRT: 17

----------
- test: Mean residence time in Sprague-Dawley rat at 1 mg/kg, iv or 2 mg/kg, po
- Assay type: ADME, organism-based
- measurement-parameters: in vivo

- chemical-smiles: "O=C(O)C1CN(Cc2ccc(-c3nc4ccc(C5(c6ccccc6)CC5)nc4s3)c(F)c2)C1"
  MRT (h): 10

----------
- test: Clearance in Sprague-Dawley rat at 1 mg/kg, iv or 2 mg/kg, po
- Assay type: ADME, organism-based
- measurement-parameters: in vivo
recorded-endpoint: clearance (mL/min/kg)

- chemical-smiles: "O=C(O)C1CN(Cc2ccc(-c3nc4ccc(C5(c6ccccc6)CC5)nc4s3)c(F)c2)C1"
  recorded-endpoint: "clearance"
  assay-value: 3

----------
- test: Clearance in Beagle dog at 1 mg/kg, iv or 1 mg/kg, po
- Format: ADME, organism-based, Canis lupus familiaris
- measurement-parameters: in vivo

- chemical-smiles: "O=C(O)C1CN(Cc2ccc(-c3nc4ccc(C5(c6ccccc6)CC5)nc4s3)c(F)c2)C1"
  clearance: "1.18 mL/min/kg"

----------
- test: Oral bioavailability in Beagle dog 1 mg/kg
- Assay type: ADME, organism-based, Canis lupus familiaris
- measurement-parameters: in vivo

- chemical-smiles: "O=C(O)C1CN(Cc2ccc(-c3nc4ccc(C5(c6ccccc6)CC5)nc4s3)c(F)c2)C1"
  bioavailability [%]: 41

----------
- test: Oral bioavailability in Sprague-Dawley rat 2 mg/kg
- Format: ADME, organism-based
- measurement-parameters: in vivo
recorded-endpoint: bioavailability (%)

- chemical-smiles: "O=C(O)C1CN(Cc2ccc(-c3nc4ccc(C5(c6ccccc6)CC5)nc4s3)c(F)c2)C1"
  assay-value: 64

----------
- test: Half life in cynomolgus monkey at 1 mg/kg, iv or 1 mg/kg, po
- Assay type: ADME, organism-based, Macaca fascicularis
- measurement-parameters: in vivo
recorded-endpoint: half-life (min)

- chemical-smiles: "O=C(O)C1CN(Cc2ccc(-c3nc4ccc(C5(c6ccccc6)CC5)nc4s3)c(F)c2)C1"
  assay-value: 1440

----------
- test: Oral bioavailability in cynomolgus monkey 1 mg/kg
- Format: ADME, organism-based, Macaca fascicularis
- measurement-parameters: in vivo

- chemical-smiles: "O=C(O)C1CN(Cc2ccc(-c3nc4ccc(C5(c6ccccc6)CC5)nc4s3)c(F)c2)C1"
  bioavailability (%): 34

----------
- test-system: Sphingosine 1-phosphate receptor 3 (Homo sapiens, UniProt Q99500)
- Sequence (Q99500 whole entry): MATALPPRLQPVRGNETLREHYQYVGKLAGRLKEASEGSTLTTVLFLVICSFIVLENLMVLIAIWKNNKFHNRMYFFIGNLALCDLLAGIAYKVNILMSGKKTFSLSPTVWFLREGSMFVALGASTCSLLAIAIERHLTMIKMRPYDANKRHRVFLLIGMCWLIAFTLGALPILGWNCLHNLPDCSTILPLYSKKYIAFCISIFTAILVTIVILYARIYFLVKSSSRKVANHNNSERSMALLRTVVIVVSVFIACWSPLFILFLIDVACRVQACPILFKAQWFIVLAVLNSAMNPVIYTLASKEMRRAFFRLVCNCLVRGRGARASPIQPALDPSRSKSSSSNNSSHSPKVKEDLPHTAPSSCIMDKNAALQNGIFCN
- test: Agonist activity at human S1P3R expressed in CHO cells by Ca(2+) mobilization assay
recorded-endpoint: EC50 (µM)

- chemical-smiles: "O=C(O)C1CN(Cc2ccc(-c3nc4ccc(C5(c6ccccc6)CC5)cc4s3)c(F)c2)C1"
  assay-value: 4.67
- chemical-smiles: "CC(C)(c1ccccc1)c1ccc2nc(-c3ccc(CN4CC(C(=O)O)C4)cc3F)sc2n1"
  assay-value: 2.51
- chemical-smiles: "O=C(O)C1CN(Cc2ccc(-c3nc4nc(Cc5ccccc5)ccc4s3)c(F)c2)C1"
  assay-value: 10.1
- chemical-smiles: "C[C@H](c1ccccc1)c1ccc2nc(-c3ccc(CN4CC(C(=O)O)C4)cc3F)sc2n1"
  assay-value: 0.996

----------
- test: Volume of distribution at steady state in cynomolgus monkey at 1 mg/kg, iv or 1 mg/kg, po
- Assay type: ADME, organism-based, Macaca fascicularis
- measurement-parameters: in vivo, read-out: Vdss

- chemical-smiles: "O=C(O)C1CN(Cc2ccc(-c3nc4ccc(C5(c6ccccc6)CC5)nc4s3)c(F)c2)C1"
  unit-of-measurement: "L/kg"
  Vd: 2.3

----------
- test: Volume of distribution at steady state in Sprague-Dawley rat at 1 mg/kg, iv or 2 mg/kg, po
- Assay type: ADME, organism-based
- measurement-parameters: in vivo, read-out: Vdss
recorded-endpoint: Vd (L/kg)

- chemical-smiles: "O=C(O)C1CN(Cc2ccc(-c3nc4ccc(C5(c6ccccc6)CC5)nc4s3)c(F)c2)C1"
  assay-value: 1.8

----------
- test-system: Sphingosine 1-phosphate receptor 3 (Homo sapiens, UniProt Q99500)
- test: Agonist activity at human S1P3R expressed in CHO cells by Ca(2+) mobilization assay

- chemical-smiles: "O=C(O)C1CN(Cc2ccc(-c3nc4ccc(Cc5ccccc5)cc4s3)c(F)c2)C1"
  lt-gt-eq: "="
  EC50 (µM): 3.47
- chemical-smiles: "O=C(O)C1CN(Cc2ccc(-c3nc4cc(Cc5ccccc5)ncc4s3)c(F)c2)C1"
  lt-gt-eq: ">"
  EC50 (µM): 25
- chemical-smiles: "O=C(O)C1CN(Cc2ccc(-c3nc4ccc(C5(c6ccccc6)CCCCC5)nc4s3)c(F)c2)C1"
  lt-gt-eq: "="
  EC50 (µM): 0.836
- chemical-smiles: "O=C(O)C1CN(Cc2ccc(-c3nc4ccc(C5(c6ccccc6)CCC5)nc4s3)c(F)c2)C1"
  lt-gt-eq: "="
  EC50 (µM): 1.31
- chemical-smiles: "O=C(O)C1CN(Cc2ccc(-c3nc4ncc(Cc5ccccc5)cc4s3)c(F)c2)C1"
  lt-gt-eq: ">"
  EC50 (µM): 25
- chemical-smiles: "C[C@@H](c1ccccc1)c1ccc2nc(-c3ccc(CN4CC(C(=O)O)C4)cc3F)sc2n1"
  lt-gt-eq: "="
  EC50 (µM): 0.877
- chemical-smiles: "O=C(O)C1CN(Cc2ccc(-c3nc4ccc(Cc5ccccc5)nc4s3)c(F)c2)C1"
  lt-gt-eq: "="
  EC50 (µM): 0.478
- chemical-smiles: "O=C(O)C1CN(Cc2ccc(-c3nc4cnc(Cc5ccccc5)cc4s3)c(F)c2)C1"
  lt-gt-eq: "="
  EC50 (µM): 5.46
- chemical-smiles: "O=C(O)C1CN(Cc2ccc(-c3nc4cc(Cc5ccccc5)cnc4s3)c(F)c2)C1"
  lt-gt-eq: "="
  EC50 (µM): 2.89

----------
- test-system: Sphingosine 1-phosphate receptor 1 (Homo sapiens)
- Sequence (P21453 whole entry): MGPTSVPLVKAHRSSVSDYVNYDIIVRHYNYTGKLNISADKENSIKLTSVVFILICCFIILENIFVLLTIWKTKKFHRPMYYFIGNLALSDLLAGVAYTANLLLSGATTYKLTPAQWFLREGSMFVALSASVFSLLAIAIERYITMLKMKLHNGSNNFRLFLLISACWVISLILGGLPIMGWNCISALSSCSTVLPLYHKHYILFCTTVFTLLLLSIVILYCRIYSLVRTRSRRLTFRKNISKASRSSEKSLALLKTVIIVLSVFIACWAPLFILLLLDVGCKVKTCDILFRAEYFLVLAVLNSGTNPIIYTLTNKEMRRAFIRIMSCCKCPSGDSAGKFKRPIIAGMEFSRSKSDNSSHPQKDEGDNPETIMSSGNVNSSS
- test: Induction of human GFP-tagged chimeric S1P1R internalization in human U2Os cells by fluorescence microscopy
Known EC50 of a selection of compounds

- chemical-smiles: "O=C(O)C1CN(Cc2ccc(-c3nc4ccc(C5(c6ccccc6)CCCCC5)nc4s3)c(F)c2)C1"
  test-system: "Sphingosine 1-phosphate receptor 1 (Homo sapiens)"
  unit-of-measurement: "µM"
  EC50: 0.033
- chemical-smiles: "O=C(O)C1CN(Cc2ccc(-c3nc4ccc(C5(c6ccccc6)CCC5)nc4s3)c(F)c2)C1"
  test-system: "Sphingosine 1-phosphate receptor 1 (Homo sapiens)"
  unit-of-measurement: "µM"
  EC50: 0.119
- chemical-smiles: "O=C(O)C1CN(Cc2ccc(-c3nc4ccc(Cc5ccccc5)nc4s3)c(F)c2)C1"
  test-system: "Sphingosine 1-phosphate receptor 1 (Homo sapiens)"
  unit-of-measurement: "µM"
  EC50: 0.199
- chemical-smiles: "O=C(O)C1CN(Cc2ccc(-c3nc4ccc(Cc5ccccc5)cc4s3)c(F)c2)C1"
  test-system: "Sphingosine 1-phosphate receptor 1 (Homo sapiens)"
  unit-of-measurement: "µM"
  EC50: 0.221
- chemical-smiles: "C[C@@H](c1ccccc1)c1ccc2nc(-c3ccc(CN4CC(C(=O)O)C4)cc3F)sc2n1"
  test-system: "Sphingosine 1-phosphate receptor 1 (Homo sapiens)"
  unit-of-measurement: "µM"
  EC50: 0.035
- chemical-smiles: "O=C(O)C1CN(Cc2ccc(-c3nc4ncc(Cc5ccccc5)cc4s3)c(F)c2)C1"
  test-system: "Sphingosine 1-phosphate receptor 1 (Homo sapiens)"
  unit-of-measurement: "µM"
  EC50: 1.6
- chemical-smiles: "O=C(O)C1CN(Cc2ccc(-c3nc4cc(Cc5ccccc5)ncc4s3)c(F)c2)C1"
  test-system: "Sphingosine 1-phosphate receptor 1 (Homo sapiens)"
  unit-of-measurement: "µM"
  EC50: 0.429
- chemical-smiles: "O=C(O)C1CN(Cc2ccc(-c3nc4ccc(C5(c6ccccc6)CCCC5)nc4s3)c(F)c2)C1"
  test-system: "Sphingosine 1-phosphate receptor 1 (Homo sapiens)"
  unit-of-measurement: "µM"
  EC50: 0.026
- chemical-smiles: "O=C(O)C1CN(Cc2ccc(-c3nc4cnc(Cc5ccccc5)cc4s3)c(F)c2)C1"
  test-system: "Sphingosine 1-phosphate receptor 1 (Homo sapiens)"
  unit-of-measurement: "µM"
  EC50: 3.98
